Reported growth values for a set of molecules
# System: MCF7 breast
# assay summary: NCI-60 one-dose screen, 48 h (100 = growth as untreated, 0 = no growth, -100 = all killed)
# experimental context: 10 µM unless noted
The panel holds about 83,000 compounds, 20% with a hit somewhere; the sample as a whole holds those more often. Activity calls are given as the source filed them. Rule for the calls: active = growth percent below 10; inactive = the rest.

Known results for molecules:
C=C(C)[C@@H]1CC[C@]2(C)[C@H](C=CC3=C4C[C@@](C)(CO)CC[C@]4(C)CC[C@]32C)[C@@]1(C)CCCN	-78.5% (active)
Cc1nc2sc(C(=O)Nc3ccccn3)c(N)c2cc1C(C)O (stereo not drawn)	29.6% (inactive)
CC(C)CCC[C@@H](C)[C@H]1CC[C@H]2[C@@H]3CC=C4c5sc(Nc6cc(C(F)(F)F)cc(C(F)(F)F)c6)nc5CC[C@]4(C)[C@H]3CC[C@]12C	107% (inactive)
O=C1/C(=C/c2ccccn2)SC(=S)N1N1CCOCC1	87.4% (inactive)
CC(C)(Sc1cc(C(C)(C)C)c(O)c(C(C)(C)C)c1)Sc1cc(C(C)(C)C)c(OC(=O)CCC(=O)O)c(C(C)(C)C)c1	35.8% (inactive)

Fc1ccc2[nH]cc(-c3nc(-c4c[nH]c5c(Cl)nccc45)cs3)c2c1 yielded growth of 45.8% (inactive)

So, N[C@@H]1CCC[C@H]1NCCCCN1C(=O)c2cccc3cc([N+](=O)[O-])cc(c23)C1=O ? Its growth was 17.2% (inactive)

So for Cc1ccc2c(c1)nc(C)n2-c1ncnc2c1CC(C)c1cc(O)ccc1N2C (stereo not drawn) , the logged growth turned out to be 19.8% (inactive)

----------
The following compounds are listed with their measured growth values.
# Tested on: 786-0 renal
# assay summary: NCI-60 one-dose screen, 48 h (100 = growth as untreated, 0 = no growth, -100 = all killed)
# experimental context: 10 µM unless noted
# Description: Cells are grown in 96 well plates and exposed to the test compound for 48 hours. Compounds are tested at a single concentration, which is 10^-5 M for most compounds. The reported endpoint is percent growth (GI% or GIPRCNT), where numbers from 0 - 100% represent growth inhibition, and numbers from -100% - 0 represent cell death. For example, a value of 40 represents 60% growth inhibition. A value of 0 means no net growth occurred over the course of the experiment. […]
The panel holds about 83,000 compounds, 20% with a hit somewhere; the sample as a whole holds those more often. The source made the active and inactive calls. The calls were made as follows: active = growth percent below 10; inactive = the rest.

Looking up CC(C)CCC[C@@H](C)[C@H]1CC[C@H]2[C@@H]3CC=C4c5sc(Nc6cc(C(F)(F)F)cc(C(F)(F)F)c6)nc5CC[C@]4(C)[C@H]3CC[C@]12C , I see its growth listed as 110% (inactive)

Query CN(C)CCC(CCN(C)C)(C(=O)O)c1ccccc1 yields growth of 105% (inactive)

For reference, reported growth for COc1cc2c(c(OC)c1OC)C(=O)CC(c1cccc(C(=O)Nc3ccc(C#N)cc3)c1)O2 (stereo unspecified) stands at 90.4% (inactive)

Please fill in: growth reported for CCOc1ncc([N+](=O)[O-])c(OCC)n1 = 108% (inactive)

The compound identified as c1ccc2cc(Cn3cc(CSc4nc5ccccc5s4)nn3)ccc2c1 registered its growth at 101% (inactive)

Recorded growth (compound O=C(/C=C/C12c3ccccc3C(c3ccccc31)C1C(=O)NC(=O)C12)c1ccc(I)cc1 (stereo unspecified) ): 64.6% (inactive)

----------
# System: NCI-H522 lung
# assay summary: NCI-60 one-dose screen, 48 h
# experimental context: 10 µM unless noted
The panel holds about 83,000 compounds, 20% with a hit somewhere; the sample as a whole holds those more often. The source made the active and inactive calls. The calls were made as follows: active = growth percent below 10; inactive = the rest.
Respond only with the outcome that fits, drawn from active, inactive

Record excerpt, results attached:
O=C1NC(=O)C(c2coc3cc(Br)ccc23)=C1c1c[nH]c2ccccc12	inactive
Nc1c(Br)cc2c(c1Br)Cc1cc([N+](=O)[O-])ccc1-2	inactive
CCN(CC)CCOc1ccc2ccc(=O)oc2c1	inactive
c1ccc(-c2c(-c3ccccc3)[n+](Cc3ccc4ccccc4c3)cn2Cc2ccc3ccccc3c2)cc1	active
O=C(/C=C/C12c3ccccc3C(c3ccccc31)C1C(=O)NC(=O)C12)c1ccc(Cl)cc1Cl (stereo not given)	active
O=C(N/N=C/c1ccc(Cl)cc1)c1ccc(NC(=O)c2ccccn2)cc1	inactive

For COc1ccc(CNc2ccc3nc(NC(=O)CN4CCCCCC4)sc3c2)cc1 , which call appears in the assay record? inactive

Field: outcome | Entry: C[C@H](c1nc2ccc(C#N)cc2[nH]1)[C@H]1CC[C@H]2[C@@H]3CCC4=CC(=O)CC[C@]4(C)[C@H]3CC[C@]12C inactive

What did the test return for CCOC(=O)c1c(NC(=O)c2ccccc2)sc2c3c(ccc12)OCN(C)C3 ? active

Per the records of this test, what outcome belongs to COc1cc(N2C(=O)[C@H](Cl)C2c2ccc(SC)cc2)cc(OC)c1OC (stereo not given in full) ? active

----------
# System: MDA-MB-435 melanoma
# assay summary: NCI-60 one-dose screen, 48 h (100 = growth as untreated, 0 = no growth, -100 = all killed)
# experimental context: 10 µM unless noted
This is part of a sample that, as a whole, favours compounds with a hit. Of some 83,000 tested, about 20% had one in any assay.
So basically, if growth comes in under 60% it's Fulfilled, and if it's 60% or more it's Not fulfilled.

C=C(c1ccc(C(=O)O)c(F)c1)c1cc2c(cc1C)C(C)(C)CCC2(C)C	Not fulfilled
Cc1c(C(C)(C)O)cn2ncnc(Oc3ccc(NC(=O)Nc4ccc(Cl)c(C(F)(F)F)c4)c(F)c3)c12	Fulfilled

Regarding CN(C)CCn1c(=O)c2ccccc2n2nc3ccccc3c12 , kindly confirm whether its growth is beneath 60%. Not fulfilled

Take the molecule Nc1cc(-c2ccc(Cl)cc2)nn1-c1nnc(/C=C/c2ccco2)c(=O)[nH]1 and say whether its growth is less than 60%. Not fulfilled

Item CCN(CC)CCCC(Cc1ccccc1)Nc1c2ccc(Cl)cc2nc2ccc(OC)cc12 (stereo not given) : growth beneath 60%, strictly? Fulfilled

----------
# Test system: MALME-3M melanoma
# assay summary: NCI-60 one-dose screen, 48 h (100 = growth as untreated, 0 = no growth, -100 = all killed)
# experimental context: 10 µM unless noted
# Method: Cells are grown in 96 well plates and exposed to the test compound for 48 hours. Compounds are tested at a single concentration, which is 10^-5 M for most compounds. The reported endpoint is percent growth (GI% or GIPRCNT), where numbers from 0 - 100% represent growth inhibition, and numbers from -100% - 0 represent cell death. For example, a value of 40 represents 60% growth inhibition. A value of 0 means no net growth occurred over the course of the experiment. […]
About 83,000 compounds went through this panel and 20% of them were active in at least one assay; those are over-represented in the sample as a whole.
The label depends only on growth: MET if it is at least 90%, NOT MET if it is smaller.

S=c1ccnc[nH]1	MET
CN1C(=O)N2CN3CCCN(C3)CN3C(=S)NC1C23 (stereo not given)	MET
Cc1ccc(-c2nc(SCC(=O)N3CCN(c4cc5c(cc4F)c(=O)c(C(=O)O)cn5C4CC4)CC3)nc(Cl)c2C#N)cc1	MET
Fc1ccc2[nH]cc(-c3nc(-c4c[nH]c5c(Cl)nccc45)cs3)c2c1	NOT MET
COc1cc2c(c(OC)c1OC)C(=O)CC(c1cccc(C(=O)Nc3ccccc3Br)c1)O2 (stereo not given)	MET
c1csc(-c2cn3nc(-c4c[nH]c5ccccc45)sc3n2)c1	NOT MET
Cc1ccc(C(=O)c2ccc(CC(=O)N/N=C/c3cccc(O)c3O)n2C)cc1	NOT MET
ClC(Cl)c1nc(-c2ccccc2)n2nc(-c3ccccc3)cc2n1	NOT MET

# next compound below
Quick check: does CCOC(=O)C1=C(CC(O)c2ccc(OC)cc2OC)NC(=O)NC1c1ccccc1 (stereo not given) have growth greater than or equal to 90%? MET

----------
# Tested on: LOX IMVI melanoma
# assay summary: NCI-60 one-dose screen, 48 h (100 = growth as untreated, 0 = no growth, -100 = all killed)
# experimental context: 10 µM unless noted
# Experimental: Growth inhibition of the LOX IMVI human tumor cell line is measured as a screen for anti-cancer activity. Cells are grown in 96 well plates and exposed to the test compound for 48 hours. Compounds are tested at a single concentration, which is 10^-5 M for most compounds. The reported endpoint is percent growth (GI% or GIPRCNT), where numbers from 0 - 100% represent growth inhibition, and numbers from -100% - 0 represent cell death. For example, a value of 40 represents 60% growth inhibition. […]
About 83,000 compounds went through this panel and 20% of them were active in at least one assay; those are over-represented in the sample as a whole.
Entries and their measured growth follow.
Write down the numeric answer in % and omit the unit.

Cc1cc(Cl)nc(N2CCN(CCNc3ccnc4cc(Cl)ccc34)CC2)n1	-14.6
N#C/C(=C\c1ccc(-c2cccc(Cl)c2)o1)C(=O)Nc1ncc(Cc2ccc(Cl)cc2)s1	52.5
O=S(=O)(N=C1C(Cl)=C(Cl)C(=NS(=O)(=O)c2ccccc2)C(Cl)=C1Cl)c1ccccc1	54.6
COc1ccc2c(O)c(/C=C3\N=Nc4ncccc43)oc2c1C[C@@H]1CCNC[C@H]1F	-93
N[C@@H]1CCC[C@H]1NCCCCN1C(=O)c2cccc3cc([N+](=O)[O-])cc(c23)C1=O	14.9
Cc1ccc2cnc(N)c(C#Cc3cc(C(=O)Nc4ccc(CN5CCN(C)CC5)c(C(F)(F)F)c4)cnc3C)c2c1	-71
Cc1ncc(C(=O)Nc2ccc(CN3CCN(C)CC3)c(C(F)(F)F)c2)cc1C#Cc1cnc(N)c2ccc(C#N)cc12	-90
CNCCCNc1nc2ccccc2c2c(=O)c3cc(Cl)ccc3sc12	-90.3

Query molecule follows.
Value of growth reported for the molecule Cc1cc(=O)n(C(=S)Nc2ccc(Cl)cc2)c2cc(O)ccc12 is 99.3
